Each record here notes measured Hydrodynamic radius (nm) pH 5.8.
- test: Dynamic light scatter spectroscopy, hydrodynamic radius
- Format: physicochemical
- cond: 1.0 μM peptide, phosphate buffer pH 5.8
Where no end group is shown, it is not given here.

| record sequence | Hydrodynamic radius (nm) pH 5.8 |
| --- | --- |
| LLGDFFRKSKEKIGKEFKRIVQRIKDFLRKLVPQPEQ (listed as Homo sapiens) [Peptide A] | 956 |
| LLGDFFRKSKEKIGKEFKRIVQRIKDFLR ((1)..(29) LL29; listed as Homo sapiens) [LL-29] | 8 |
| SKEKIGKEFKRIVQRIKDFLR [LL9-29] | 1281 |
| LLGNFFRKSKQKIGKQFKRIVQRIKNFLRNLVPRTQS (not fully specified) [Pentamide, five acidic residues in LL-37 replaced with neutral-polar residues, reference compound] | 1990 |
| SKEKIGKEFKRIVQRIKDFLRNLVPRTES ((1)..(29) LL8-37; listed as Homo sapiens) | 615 |
| GLLRKGGEKIGEKLKKIGQKIKNFFQKLVPQPEQ [mCRAMP, murine ortholog of LL-37, reference compound] | 1106 |

====

- Tested on: TLR3 signaling
- test: IL-6 production (ELISA) in BEAS-2B cells induced with poly(I:C)
- Format: cell-based, human
- cond: BEAS-2B cells induced with 130 ng/ml of poly(I:C); LL-37 100
Where no end group is shown, it is not given here.
observed property: IL-6 production (%) poly(I:C)-depend.

| record sequence | study target | observed property | result units | observed value |
| --- | --- | --- | --- | --- |
| LLGDFFRKSKEKIGKEFKRIVQRIKDFLRKLVPQPEQ (listed as Homo sapiens) [Peptide A] | TLR3 signaling | IL-6 production (%) poly(I:C)-depend. | % | 41 |
| SKEKIGKEFKRIVQRIKDFLRNLVPRTES ((1)..(29) LL8-37; listed as Homo sapiens) | TLR3 signaling | IL-6 production (%) poly(I:C)-depend. | % | 38 |
| GLLRKGGEKIGEKLKKIGQKIKNFFQKLVPQPEQ [mCRAMP, murine ortholog of LL-37, reference compound] | TLR3 signaling | IL-6 production (%) poly(I:C)-depend. | % | 31 |
| SKEKIGKEFKRIVQRIKDFLR [LL9-29] | TLR3 signaling | IL-6 production (%) poly(I:C)-depend. | % | 31 |
| LLGNFFRKSKQKIGKQFKRIVQRIKNFLRNLVPRTQS (not fully specified) [Pentamide, five acidic residues in LL-37 replaced with neutral-polar residues, reference compound] | TLR3 signaling | IL-6 production (%) poly(I:C)-depend. | % | 31 |
| LLGDFFRKSKEKIGKEFKRIVQRIKDFLR ((1)..(29) LL29; listed as Homo sapiens) [LL-29] | TLR3 signaling | IL-6 production (%) poly(I:C)-depend. | % | 47 |

====

- test: Dynamic light scatter spectroscopy, hydrodynamic radius
- Type: physicochemical
- cond: 1.0 μM peptide, phosphate buffer pH 7.4
Where no end group is shown, it is not given here.
Each entry gets label 0 if its Hydrodynamic radius (nm) pH 7.4 stays under 1000 nm, and label 1 if its Hydrodynamic radius (nm) pH 7.4 is 1000 nm or above.

| record sequence | category |
| --- | --- |
| GLLRKGGEKIGEKLKKIGQKIKNFFQKLVPQPEQ [mCRAMP, murine ortholog of LL-37, reference compound] | label 1 |
| SKEKIGKEFKRIVQRIKDFLRNLVPRTES ((1)..(29) LL8-37; listed as Homo sapiens) | label 0 |
| LLGDFFRKSKEKIGKEFKRIVQRIKDFLRKLVPQPEQ (listed as Homo sapiens) [Peptide A] | label 1 |
| SKEKIGKEFKRIVQRIKDFLR [LL9-29] | label 0 |
| LLGNFFRKSKQKIGKQFKRIVQRIKNFLRNLVPRTQS (not fully specified) [Pentamide, five acidic residues in LL-37 replaced with neutral-polar residues, reference compound] | label 1 |
| LLGDFFRKSKEKIGKEFKRIVQRIKDFLR ((1)..(29) LL29; listed as Homo sapiens) [LL-29] | label 1 |
